Target: T1, Human IFNAR1 SD1-SD4 (human, UniProt P17181 28-436, limits assumed)
T1 construct: domain: SD1-SD4; Antigen injected in the Biacore assay
T1 sequence (looked up): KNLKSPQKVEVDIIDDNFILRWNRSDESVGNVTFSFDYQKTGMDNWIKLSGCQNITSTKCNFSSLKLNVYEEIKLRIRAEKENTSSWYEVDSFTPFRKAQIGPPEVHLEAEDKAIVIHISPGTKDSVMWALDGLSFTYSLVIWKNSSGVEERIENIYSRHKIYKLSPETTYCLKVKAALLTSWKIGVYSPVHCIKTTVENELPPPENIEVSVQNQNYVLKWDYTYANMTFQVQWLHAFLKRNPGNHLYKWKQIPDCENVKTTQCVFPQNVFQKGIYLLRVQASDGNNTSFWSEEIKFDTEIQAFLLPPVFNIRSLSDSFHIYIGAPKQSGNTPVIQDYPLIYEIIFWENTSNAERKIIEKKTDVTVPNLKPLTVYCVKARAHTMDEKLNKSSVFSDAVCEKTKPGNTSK
Test: SPR (Biacore 8K), antibody captured on anti-human IgG Fc, antigen injected
pKd: −log10 of the molar value.
metric: pKd

- 7G4 Chimeric (antibody, V domains shown) VH: QVQLQQPGAELVKPGAPVKLSCKASGYTFTSYWMNWVRQRPGRGLEWIGKIDPSDSETHFNQKFRDKATLTVDKSSTTAYIQLSSLTSEDSAVYYCARGGRISFDYDAALDYWGQGTSVTVSS VL: DILMTQSSSSFSVSLGDRVTITCKSSEVIYNRLAWFQQKPGNAPRLLISGATTLESGFPSRFSGSGSGKDYTLSITSLQIEDVSTYYCQQYWNKPFTFGSGTKLEVK: 9.12
- Hu4-15 (antibody, V domains shown, Humanized 7G4 variant) VH: QVQLVQSGAEVKKPGASVKVSCKASGYTFTSYWMNWVRQAPGQGLEWIGKIDPSDSETHFNQKFRDRVTLTVDKSTSTVYMELSSLRSEDTAVYYCARGGRISFDYDAALDYWGQGTLVTVSS VL: DIQMTQSPSSLSASVGDRVTITCKSSEVIYNRLAWYQQKPGNAPKLLISGATTLESGVPSRFSGSGSGKDYTLTISSLQPEDFATYYCQQYWNKPFTFGQGTKLEIK: 9.35
